molecules and their reported GI50
Test system: A498
Assay: NCI tumour cell line growth inhibition, 48 h
Activity calls are given as the source filed them. Cut-off read from the data, not from the text of the source: active = GI50 up to about 1.1 µM and inactive = higher.
outcomeMeasure: GI50

> print(dat)
                                    molecule  outcomemeasure                result
 1      [O-]c1c[n+](CCCC[n+]2cc([O-])on2)no1            GI50   > 100 µM (inactive)
 2  CC(C#N)(NO)C(C)(C#N)NO (configuration not stated)            GI50   > 100 µM (inactive)
 3  O=[N+]([O-])c1ccc(-n2nnc(C3=NCCN3)c2-c2ccc(Cl)cc2)cc1            GI50   > 100 µM (inactive)
 4                           N#C/N=C(\N)NCCO            GI50   > 100 µM (inactive)
 5           O=C1C(=C(I)I)c2ccccc2-c2ccccc21            GI50    16.6 µM (inactive)
 6          CN(C)/C=N/c1c2c(nc3ccccc13)CCCC2            GI50    49.9 µM (inactive)
 7  O/N=C1/C(=C/c2ccc(Cl)cc2)CCCC1C(NO)c1ccc(Cl)cc1 (configuration not stated)            GI50    18.1 µM (inactive)
 8      C/N=c1\ss/c(=N\C(=S)N(C)C)n1C1CCCCC1            GI50  > 31.6 µM (inactive)
 9  Cc1ccnc(Nc2[nH]c(C(=O)c3ccc(Cl)cc3)c(N)c2C(=S)Nc2ccccc2)c1            GI50    19.1 µM (inactive)
10  CC[C@@H]1C[C@@H](O)[C@@H]2[C@H](O)[C@H](O)CN2C1            GI50   > 100 µM (inactive)
11  O=C1c2ccccc2N2OC3C4CCC(C4)C3C12c1ccccc1 (configuration not stated)            GI50   > 100 µM (inactive)
12  COc1ccc2c(c1)[n+]([O-])c(-c1ccc(C)cc1)c(N)[n+]2[O-]            GI50   > 100 µM (inactive)
13  COc1ccc(-c2c(C3=NCCCN3)nnn2-c2ccc([N+](=O)[O-])cc2)cc1            GI50   > 100 µM (inactive)
14  CC1(C)C2CCC1(C)C(N/C(=C(/C(Cl)=C(Cl)Cl)[N+](=O)[O-])n1nnc3ccccc31)C2 (configuration not stated)            GI50    19.9 µM (inactive)
15  CC1(C)S[C@H](c2ccccc2C(=O)O)N[C@@H]1CC(=O)O            GI50   > 100 µM (inactive)
16  Cc1c2c(n(CC(c3ccccc3)c3ccccc3)c1C)NN=C(C#N)S2(=O)=O            GI50   > 100 µM (inactive)
17       COC(=O)/C(=C(/C)c1ccco1)P(=O)(OC)OC            GI50   > 100 µM (inactive)
18  COC(=O)C12OC3CO[Si](C(C)C)(C(C)C)O[Si](C(C)C)(C(C)C)OC3C1Oc1nc(=O)ccn12 (configuration not stated)            GI50    23.7 µM (inactive)
19  N#CC1C(C#N)C2(c3ccccc3)C(c3ccccc3)=NN(c3ccccc3)CC12 (configuration not stated)            GI50   > 100 µM (inactive)
20  CCOP(=O)(OCC)C(Nc1cccc(F)c1)c1ccccc1 (configuration not stated)            GI50   > 100 µM (inactive)
21      O=C(Nc1ccc([N+](=O)[O-])cc1)Nn1cnnc1            GI50    34.1 µM (inactive)
22  C=C[C@@]1(C)CC2CC[C@]3(C)C(C)=CC(=O)CC3[C@]2(C)CC1O (some centres not stated)            GI50   > 100 µM (inactive)

The measured values listed here are drawn from ChEMBL document CHEMBL1201862.
